The reported measurements were obtained from the supplement of paper PMC10567573.

B1: NR2F2 (parent)
chain: VAHVESLQEKSQCALEEYVRSQYP

Variants of: B1
Assay: protein stability index of a GFP-peptide fusion (GPS, HEK-293T) (PSI 1-6); higher = more stable;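 also: lentivirally expressed fusions sorted by FACS into six bins by GFP to DsRed ratio, PSI derived from sequencing read proportions per bin multiplied by bin number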
Conditions: c terminus: a fixed tail appended
As shown below, each of these variants has a reported protein stability index value.

- mutation_annotation: "V4G"
  protein stability index: 3.94
- mutation_annotation: "L15C"
  protein stability index: 4.01
- mutation_annotation: "K10M"
  protein stability index: 2.97
- mutation_annotation: "L7A"
  protein stability index: 3.92
- mutation_annotation: "Q8V"
  protein stability index: 3.02
- mutation_annotation: "C13M"
  protein stability index: 3.98
- mutation_annotation: "V4A"
  protein stability index: 4.11
- mutation_annotation: "E5P"
  protein stability index: 3.04
- mutation_annotation: "E9N"
  protein stability index: 3.05
- mutation_annotation: "V19K"
  protein stability index: 4.04
- mutation_annotation: "C13L"
  protein stability index: 3.92
- mutation_annotation: "Q12M"
  protein stability index: 2.99
- mutation_annotation: "Q8E"
  protein stability index: 3.99
- mutation_annotation: "C13P"
  protein stability index: 3.92
- mutation_annotation: "V1M"
  protein stability index: 3.89
- mutation_annotation: "V1Q"
  protein stability index: 3.89
- mutation_annotation: "Q8M"
  protein stability index: 2.98
